Sourced from patent US20250109126A1

Test system: NLRP3 inflammasome pathway
assayInfo: NLRP3 inflammasome pathway activation assay, IL-1β release (HTRF) in human monocyte-like cells stimulated with MSU or Nigericin
Format: cell-based
measurementConditions: read-out: IC50 Human monocyte-like cells Nigericin; IL-1β release; PMA-differentiated, LPS-primed cells; Nigericin 3.75 μM for 3 h
pIC50: −log10 of the molar value.
measurementType: pIC50

Problem: Quick one: give measured pIC50 for CCOC(=O)C1(c2ccon2)CN=C(Nc2c3c(c(-c4ccccc4)c4c2CCC4)CCC3)O1 (single isomer, unassigned)
Result: 5.00 to 6.00
